tested on: A549 cells; assay: Cell viability (MTT) of A549 cells under low serum / serum deprivation; type: cell-based; conditions: 2 µM
PROPERTY_LABEL: cellular viability

SUBSTANCE	VALUE_MEASURED
Ac-RQIKIWFKKQNRRMKWKKAKLNAEKLKDFKIRLQYFARGLQVYIRQLRLALQGKT-NH2 [Antp-AAC-11-LZ (363-399)]	97 % of control
Ac-RQIKIWFKKQNRRMKWKKKDFKIRLQYFARGLQVYIRQLRLALQGKT-NH2 [Antp-AAC-11-LZ (371-399)]	33.2 % of control
Ac-RQIKIWFKKQNRRMKWKKLQYFARGLQVYIRQLRLALQGKT-NH2 [Antp-AAC-11-LZ (377-399)]	5 % of control
Ac-RQIKIWFKKQNRRMKWKKLQYFARGLLRLALQGKT-NH2 [Antp-AAC-11-LZ (377-399 4385-390)]	3 % of control
